Molecular target: T1, murine Tissue Factor in murine brain extracts (murine, UniProt P20352 29-294)
T1 sequence (looked up): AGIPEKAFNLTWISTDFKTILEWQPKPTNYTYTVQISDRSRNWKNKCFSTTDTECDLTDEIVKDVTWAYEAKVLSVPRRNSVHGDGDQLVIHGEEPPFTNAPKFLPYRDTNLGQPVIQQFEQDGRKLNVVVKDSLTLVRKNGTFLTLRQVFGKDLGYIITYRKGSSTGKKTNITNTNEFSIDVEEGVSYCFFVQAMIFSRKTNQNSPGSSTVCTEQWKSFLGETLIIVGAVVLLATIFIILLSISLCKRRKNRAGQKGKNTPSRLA
Assay: cell-based or functional assay
measurementName: EC50 Conc. (ug/ml), inhibition of fibrin clot formation in human plasma (µg/mL)

{"columns": ["binder", "quantityUnit", "assayValue"],
 "data": [
  ["PHD104 Fab (Fab, V domains shown) VH: QVQLVQSGAEVKKPGESLKISCKGSYSFTSNWIGWVRQMPGKGLEWMGWIYPSDSMTRYSPSFQGQVTISADKSISTAYLQWSSLKASDTAMYYCARYLFGLFDNWGQGTLVTVSS VL: DIELTQPPSVSVAPGQTARISCSGDNLGSYYVSWYQQKPGQAPVLVIYNDNNRPSGIPERFSGSNSGNTATLTISGTQAEDEADYYCATYDSSTDVFGGGTKLTVLG", "µg/mL", 23.8]
]}
